Each entry below carries its recorded Emax.
- ASSAYED_SYSTEM: PPARδ (Homo sapiens)
- Construct: A chimeric receptor expression plasmid (GAL4-hPPARδ LBD); expressed in transfected cells; host or cells: CV-1 cells
- Sequence (Q03181 211-439 limits assumed): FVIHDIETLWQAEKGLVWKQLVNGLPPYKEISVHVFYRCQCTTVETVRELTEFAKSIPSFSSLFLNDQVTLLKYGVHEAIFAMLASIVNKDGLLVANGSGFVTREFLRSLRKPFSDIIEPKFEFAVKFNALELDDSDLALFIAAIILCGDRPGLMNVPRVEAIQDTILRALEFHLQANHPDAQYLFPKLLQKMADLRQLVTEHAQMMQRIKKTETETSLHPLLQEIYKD
- ASSAY_PROCEDURE: PPARδ transactivation activity (GAL4-hPPARδ LBD / UASx4-TK-LUC reporter in CV-1 cells)
- Format: cell-based
- REPORTED_CONDITIONS: CV-1, 40 h; in the manner as described in Example 9; Table 26; read-out: PPARδ (PPAR activating power)
A number alone suffices; assume %.

Before answering, review these 3 worked examples.
What Emax value was documented for this compound, CC(C)c1oc(-c2cccc(Cl)c2O)nc1CCC(=O)c1ccc(OC(C)(C)C(=O)O)cc1 ?
79

Please give the result for CC(C)c1oc(-c2ccc(-c3ccccc3)cc2)nc1CCC(=O)c1ccc(OC(C)(C)C(=O)O)cc1 too.
58

Please give the result for CCC(C)(Oc1ccc(C(=O)CCc2nc(-c3ccc(Cl)cc3Cl)oc2C(C)C)cc1)C(=O)O (stereo not shown) too.
58

// below: Emax requested for another compound
What Emax value was documented for this compound, CC(C)c1oc(-c2ccc(Cl)cc2Cl)nc1CC=Cc1ccc(OC(C)(C)C(=O)O)cc1 ?
70

* * *

- ASSAYED_SYSTEM: PPARγ (Homo sapiens, UniProt P37231)
- Construct: Receptor expression plasmid (GAL4-hPPARα, LBD GAL4-hPPARγ LBD, GAL4-hPPARδ LBD); expressed in transfected cells; host or cells: CV-1 cells
- Sequence (P37231 238-503 limits assumed): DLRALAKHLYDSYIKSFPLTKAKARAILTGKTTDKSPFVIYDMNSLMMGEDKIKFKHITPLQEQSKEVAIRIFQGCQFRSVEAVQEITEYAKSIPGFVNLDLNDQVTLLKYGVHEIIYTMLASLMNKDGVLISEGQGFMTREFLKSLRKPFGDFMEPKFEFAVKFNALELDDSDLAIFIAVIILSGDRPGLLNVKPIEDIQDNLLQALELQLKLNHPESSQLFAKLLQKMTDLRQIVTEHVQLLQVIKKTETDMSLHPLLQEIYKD
- ASSAY_PROCEDURE: PPARγ transactivation activity (GAL4-hPPARγ LBD / UASx4-TK-LUC reporter in CV-1 cells)
- Type: cell-based
- REPORTED_CONDITIONS: compound at 10^−5 M; CV-1 cells; Table 25
VALUE_KIND: PPARγ transactivation activity: a relative value (control = 100%)
A number alone suffices; assume %.

Fill in the recorded PPARγ transactivation activity: a relative value (control = 100%) for this compound, with PPARγ (Homo sapiens, UniProt P37231) as test system: CCCc1oc(-c2ccc(Cl)cc2)nc1CCC(=O)c1ccc(OC(C)(C)C(=O)O)cc1
51

Please give the result for CC(C)c1oc(-c2ccccc2Cl)nc1CCCc1ccc(OC(C)(C)C(=O)O)cc1 too.
93

Please give the result for CC(C)c1oc(-c2ccccc2Cl)nc1CCC(=O)c1ccc(OC(C)(C)C(=O)O)cc1 too.
27

Please give the result for CC(C)c1oc(-c2ccccc2Cl)nc1CC=Cc1ccc(OC(C)(C)C(=O)O)cc1 too.
36

Please give the result for CC(C)c1oc(-c2ccccc2Cl)nc1CCC(O)c1ccc(OC(C)(C)C(=O)O)cc1 (stereo not drawn) too.
26

Please give the result for CC(C)c1oc(-c2ccccc2Cl)nc1CCC(=NO)c1ccc(OC(C)(C)C(=O)O)cc1 too.
16

* * *

- ASSAYED_SYSTEM: PPARδ (Homo sapiens)
- Construct: A chimeric receptor expression plasmid (GAL4-hPPARδ LBD); expressed in transfected cells; host or cells: CV-1 cells
- ASSAY_PROCEDURE: PPARδ transactivation activity (GAL4-hPPARδ LBD / UASx4-TK-LUC reporter in CV-1 cells)
- Assay type: cell-based
- REPORTED_CONDITIONS: compound at 10^−5 M; CV-1 cells; Table 25
VALUE_KIND: PPARδ transactivation activity: a relative value (control = 100%)
A number alone suffices; assume %.

What PPARδ transactivation activity: a relative value (control = 100%) value was documented for this molecule, CCCc1oc(-c2ccc(Cl)cc2)nc1CCC(=O)c1ccc(OC(C)(C)C(=O)O)cc1 [Example 2] ?
93

Please give the result for CC(C)c1oc(-c2ccccc2Cl)nc1CC=Cc1ccc(OC(C)(C)C(=O)O)cc1 [Example 5] too.
114

Please give the result for CC(C)c1oc(-c2ccccc2Cl)nc1CCC(=O)c1ccc(OC(C)(C)C(=O)O)cc1 [Example 1] too.
80

Please give the result for CC(C)c1oc(-c2ccccc2Cl)nc1CCCc1ccc(OC(C)(C)C(=O)O)cc1 [Example 6] too.
109

Please give the result for CC(C)c1oc(-c2ccccc2Cl)nc1CCC(=NO)c1ccc(OC(C)(C)C(=O)O)cc1 [Example 3] too.
19

Please give the result for CC(C)c1oc(-c2ccccc2Cl)nc1CCC(O)c1ccc(OC(C)(C)C(=O)O)cc1 (stereo not drawn) [Example 4] too.
23

* * *

- ASSAYED_SYSTEM: PPARα (Homo sapiens)
- Construct: Receptor expression plasmid (GAL4-hPPARα, LBD GAL4-hPPARγ LBD, GAL4-hPPARδ LBD); expressed in transfected cells; host or cells: CV-1 cells
- Sequence (Q07869 239-466 limits assumed): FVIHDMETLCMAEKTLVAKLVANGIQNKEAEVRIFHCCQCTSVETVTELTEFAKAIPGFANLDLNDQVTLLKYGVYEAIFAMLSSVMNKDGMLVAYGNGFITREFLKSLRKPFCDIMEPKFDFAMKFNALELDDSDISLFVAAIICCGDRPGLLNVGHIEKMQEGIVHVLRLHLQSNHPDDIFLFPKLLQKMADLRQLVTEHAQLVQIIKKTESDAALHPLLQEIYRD
- ASSAY_PROCEDURE: PPARα transactivation activity (GAL4-hPPARα LBD / UASx4-TK-LUC reporter in CV-1 cells)
- Format: cell-based
- REPORTED_CONDITIONS: CV-1; in the manner as described in Example 9; Table 26; read-out: PPARα (PPAR activating power)
Each entry below carries its recorded Emax.
A number alone suffices; assume %.

Before answering, review these 5 worked examples.
Fill in the recorded Emax for this molecule, with PPARα (Homo sapiens) as test system: CC(C)c1oc(-c2ccc(Br)cc2Cl)nc1CCC(=O)c1ccc(OC(C)(C)C(=O)O)cc1 [Example 7-13]
1

Please give the result for CC(C)c1oc(-c2cc3ccccc3cc2O)nc1CCC(=O)c1ccc(OC(C)(C)C(=O)O)cc1 [Example 7-11] too.
29

Please give the result for CC(C)c1oc(-c2cccc(Cl)c2O)nc1CCC(=O)c1ccc(OC(C)(C)C(=O)O)cc1 [Example 7-12] too.
8

Please give the result for CC(C)c1oc(-c2cc3ccccc3o2)nc1CCC(=O)c1ccc(OC(C)(C)C(=O)O)cc1 [Example 7-7] too.
1

Please give the result for CC(C)c1oc(-c2cccc(Cl)c2Cl)nc1CCC(=O)c1ccc(OC(C)(C)C(=O)O)cc1 [Example 7-6] too.
8

More entries:
Fill in the recorded Emax for this molecule, with PPARα (Homo sapiens) as test system: CC(C)c1oc(-c2ccc(-c3ccccc3)cc2Cl)nc1CCC(=O)c1ccc(OC(C)(C)C(=O)O)cc1 [Example 7-14]
2

Please give the result for CCC(C)(Oc1ccc(C(=O)CCc2nc(-c3ccc(Cl)cc3Cl)oc2C(C)C)cc1)C(=O)O (centres unmarked) [Example 7-5] too.
1

Please give the result for CCCc1c(OCCCOc2ccc(OCC(=O)O)cc2)ccc(C(C)=O)c1O [Example L-165041, reference compound] too.
2
